target: 5-hydroxytryptamine receptor 2C (Rattus norvegicus); assay: Induction of penile erection in rats after subcutaneous administration, indicative of 5-HT 2c receptor activation; assay type: functional, organism-based
Assay metric: ED50

Guide cases for ED50, answers given:
- COc1ccc2c(ccn2CC(C)N)c1 (stereo not drawn): > 10 mg/kg
- COc1cccc2c1ccn2CC(C)N (stereo not drawn): > 10 mg/kg

Here is another compound to look at.
q: Give the measured ED50 of COc1ccc2c(c1)Cc1ccn(CC(C)N)c1-2 (stereo not drawn) .
a: > 10 mg/kg

----------
Listed here: items and their measured EC50.
Target: 5-hydroxytryptamine receptor 2C (Rattus norvegicus, UniProt P08909)
Sequence (P08909 whole entry): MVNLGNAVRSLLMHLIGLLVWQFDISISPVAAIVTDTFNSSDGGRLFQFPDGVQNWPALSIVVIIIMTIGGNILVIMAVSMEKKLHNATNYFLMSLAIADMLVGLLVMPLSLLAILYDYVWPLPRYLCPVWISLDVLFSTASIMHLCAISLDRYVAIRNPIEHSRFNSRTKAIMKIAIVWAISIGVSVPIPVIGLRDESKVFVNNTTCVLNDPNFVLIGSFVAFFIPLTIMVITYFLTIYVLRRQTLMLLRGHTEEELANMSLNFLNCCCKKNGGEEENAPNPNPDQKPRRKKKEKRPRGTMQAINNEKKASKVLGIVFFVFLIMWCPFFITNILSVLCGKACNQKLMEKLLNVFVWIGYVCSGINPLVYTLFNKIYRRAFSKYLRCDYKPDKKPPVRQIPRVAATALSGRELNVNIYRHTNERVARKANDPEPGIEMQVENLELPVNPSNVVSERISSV
Assay: Efficacy (pEC50) was evaluated for 5-HT2C receptor-mediated stimulation of IP3 formation in vitro in choroid plexus of the rat
Provide the reading as a plain figure in µM.

Check out these entries, answers already filled in.
• C[C@@H](N)Cn1ccc2c(Cl)c(F)ccc21 = 0.794
• CC(N)Cc1c[nH]c2ccc(F)cc12 (stereo unspecified) = 0.158
• COc1ccc2c(c1)-c1c(ccn1CC(C)N)C2 (stereo unspecified) = 0.398
• COc1cccc2c1-c1c(ccn1CC(C)N)C2 (stereo unspecified) = 6.31
• CC(N)Cn1ccc2c1-c1cc(Br)ccc1C2 (stereo unspecified) = 2.51

q: What EC50 value was documented for this compound, COc1ccc2c(c1)-c1c(ccn1C[C@@H](C)N)C2 ?
a: 7.94

q: Fill blank: measured EC50 of the compound CC(N)Cn1ccc2c1-c1cc(F)ccc1C2 (stereo unspecified) is ____.
a: 0.631

q: Fill blank: measured EC50 of the compound COc1cccc2c1ccn2CC(C)N (stereo unspecified) is ____.
a: 12.6

q: Consider the compound C[C@@H](N)Cn1ccc2cc(F)c(F)cc21 and give its measured EC50.
a: 0.126

q: Need EC50, item C[C@@H](N)Cn1ccc2cc(F)c(Cl)cc21
a: 3.16

q: Suppose we examine the compound CC(N)Cn1ccc2cc(Cl)ccc21 (stereo unspecified) ; what EC50 value has been reported?
a: 2

q: // lookup EC50 for Cc1ccc2c(ccn2CC(C)N)c1 (stereo unspecified)
a: 2.51

q: Name the reported EC50 value associated with the compound CC(N)Cn1ccc2cc(F)ccc21 (stereo unspecified)
a: 1.58

q: For COc1ccc2c(c1)-c1c(ccn1C[C@H](C)N)C2 , what is its reported EC50?
a: 0.251

q: Looking for the measured EC50 of CC(N)Cn1ccc2c(F)cccc21 (stereo unspecified) , can you help?
a: 1.26

q: Can you look up the measured EC50 of Cc1ccc2ccn(CC(C)N)c2c1 (stereo unspecified) for me?
a: 7.94

q: Query (compound): Cc1ccc2c(c1)-c1c(ccn1CC(C)N)C2(C)C (stereo unspecified) ; field requested: EC50
a: 0.2

q: Which EC50 is reported for this compound? COc1ccc2c(c1)Cc1ccn(CC(C)N)c1-2 (stereo unspecified)
a: 2

q: Param item = COc1ccc2c(c1)-c1c(ccn1CC(C)N)C2(C)C (stereo unspecified) ; retrieve measured EC50.
a: 0.1

q: Find the recorded EC50 belonging to CC(N)Cn1ccc2c1-c1cc(Cl)ccc1C2 (stereo unspecified) and report it.
a: 2.51

q: Which EC50 value is on record for CC(N)Cn1ccc2ccc(F)cc21 (stereo unspecified) ?
a: 0.631

// provenance: ChEMBL document CHEMBL1130391
